# Tested on: HIV
# experiment: Testing preparations against HIV in cell culture (infected human donor lymphocytes)
# Assay type: cell-based
# protocolConditions: Human immunodeficiency virus 1, 72 h; lowest concentration without giant cells; HIV-infected lymphocytes, 3 days, 37° C.
Documented MIC across a set of molecules
experimentalEndpoint: MIC

[[record]]
molecule = "CC/C=C1/c2cc(Cl)ccc2NC(=S)C1(C)C [Compound 72]"
valueobserved = "< 8 ng/mL"

[[record]]
molecule = "C=CC=C1c2cc(Cl)ccc2NC(=S)C1(C)C [Compound 14]"
valueobserved = "< 8 ng/mL"

[[record]]
molecule = "CCOc1ccc2c(c1)C(=CCC(C)C)C(C)(C)C(=S)N2 [Compound 59]"
valueobserved = "< 20 ng/mL"


* * *

# Test system: HIV
# experiment: Testing preparations against HIV in cell culture (infected human donor lymphocytes)
# Format: cell-based
# protocolConditions: Human immunodeficiency virus 1, 72 h; lowest concentration without giant cells; HIV-infected lymphocytes, 3 days, 37° C.
experimentalEndpoint: MIC

[[record]]
molecule = "COc1ccc2c(c1)C(=C1CCCC1)C(C)(C)C(=S)N2 [Compound 140]"
experimentalendpoint = "MIC"
valueobserved = "0.2 µg/mL"

[[record]]
molecule = "CC(C)C=C1c2cc(Cl)ccc2NC(=S)C1(C)C [Compound 18]"
experimentalendpoint = "MIC"
valueobserved = "< 0.008 µg/mL"

[[record]]
molecule = "C=CC=C1c2cc(Cl)ccc2NC(=O)C1(C)C [Compound 13]"
experimentalendpoint = "MIC"
valueobserved = "> 0.2 µg/mL"

[[record]]
molecule = "CCC1(CC)C(=O)Nc2ccccc2C1=CCC(C)C [Compound 52]"
experimentalendpoint = "MIC"
valueobserved = "0.02 µg/mL"

[[record]]
molecule = "CC(C)C=C1c2ccccc2NC(=S)C12CCC2 [Compound 34]"
experimentalendpoint = "MIC"
valueobserved = "< 0.04 µg/mL"

[[record]]
molecule = "CC(C)CC=C1c2ccccc2NC(=O)C12CCCC2 [Compound 67]"
experimentalendpoint = "MIC"
valueobserved = "< 0.1 µg/mL"

[[record]]
molecule = "CCCC=C1c2cc(OC)ccc2NC(=S)C1(C)C [Compound 42]"
experimentalendpoint = "MIC"
valueobserved = "< 0.008 µg/mL"

[[record]]
molecule = "CCC=C1c2ccccc2NC(=O)C1(CC)CC [Compound 50]"
experimentalendpoint = "MIC"
valueobserved = "< 0.1 µg/mL"

[[record]]
molecule = "CCC=C1c2cc(Cl)ccc2NC(=S)C1(C)C [Compound 4]"
experimentalendpoint = "MIC"
valueobserved = "0.0016 µg/mL"

[[record]]
molecule = "CCOC(=O)/C=C1\\c2cc(Cl)ccc2NC(=S)C1(C)C [Compound 142]"
experimentalendpoint = "MIC"
valueobserved = "< 0.2 µg/mL"

[[record]]
molecule = "CCCC=C1c2ccccc2NC(=O)C1(CC)CC [Compound 48]"
experimentalendpoint = "MIC"
valueobserved = "< 0.08 µg/mL"

[[record]]
molecule = "CCC=C1c2cc(Cl)ccc2NC(=O)C1(C)C [Compound 3]"
experimentalendpoint = "MIC"
valueobserved = "< 0.08 µg/mL"

[[record]]
molecule = "CCC/C=C1\\c2cc(Cl)ccc2NC(=S)C1(C)C [Compound 75]"
experimentalendpoint = "MIC"
valueobserved = "0.004 µg/mL"

[[record]]
molecule = "CCCC=C1c2cc(Cl)ccc2NC(=NO)C1(C)C [Compound 60]"
experimentalendpoint = "MIC"
valueobserved = "0.0016 µg/mL"

[[record]]
molecule = "CC(C)CC=C1c2cc(Cl)ccc2NC(=S)C1(C)C [Compound 20]"
experimentalendpoint = "MIC"
valueobserved = "< 0.008 µg/mL"

[[record]]
molecule = "CCCC=C1c2ccccc2NC(=S)C1(CC)CC [Compound 49]"
experimentalendpoint = "MIC"
valueobserved = "< 0.02 µg/mL"

